// data source = paper PMC12555108

TGT: BCRP (Homo sapiens, UniProt Q9UNQ0)
Sequence (Q9UNQ0 whole entry): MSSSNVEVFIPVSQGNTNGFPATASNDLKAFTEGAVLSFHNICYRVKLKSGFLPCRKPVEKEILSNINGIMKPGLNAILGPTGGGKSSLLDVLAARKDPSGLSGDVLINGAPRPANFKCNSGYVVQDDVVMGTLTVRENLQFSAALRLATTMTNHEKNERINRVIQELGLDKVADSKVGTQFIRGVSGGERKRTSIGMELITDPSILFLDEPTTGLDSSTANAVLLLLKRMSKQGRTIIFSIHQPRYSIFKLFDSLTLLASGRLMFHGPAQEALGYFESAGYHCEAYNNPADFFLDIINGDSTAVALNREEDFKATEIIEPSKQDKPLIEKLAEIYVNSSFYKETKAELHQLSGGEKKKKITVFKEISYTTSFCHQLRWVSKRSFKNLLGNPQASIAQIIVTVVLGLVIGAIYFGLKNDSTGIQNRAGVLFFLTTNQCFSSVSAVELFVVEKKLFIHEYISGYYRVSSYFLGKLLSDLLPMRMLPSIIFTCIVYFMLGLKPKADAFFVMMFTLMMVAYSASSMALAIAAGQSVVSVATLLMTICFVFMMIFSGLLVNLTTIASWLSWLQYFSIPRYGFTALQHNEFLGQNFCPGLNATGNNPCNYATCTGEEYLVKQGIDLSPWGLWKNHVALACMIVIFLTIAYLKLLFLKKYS
EXPERIMENT_SUMMARY: bidirectional transport assay across hCMEC/D3 cell monolayer with or without Ko143
CONDITION_CONTEXT: human, pH 7.4, with Ko143 1 μM
OUTCOME_MEASURE: Papp A→B at 2 h, 42 μM (×10⁻⁶ cm/s)
# unit: ×10⁻⁶ cm/s | format: bare number

Look at this molecule and give its reported Papp A→B at 2 h, 42 μM. NC(=O)N1c2ccccc2C=Cc2ccccc21 [CBZ, carbamazepine]
3.82

---

TGT: BCRP (Homo sapiens)
EXPERIMENT_SUMMARY: bidirectional transport assay across hCMEC/D3 cell monolayer with or without Ko143
CONDITION_CONTEXT: human, pH 7.4, Efflux ratio (ER), hCMEC/D3 without inhibitor Ko143, 40 μM; hCMEC/D3 monolayer
OUTCOME_MEASURE: efflux ratio at 2 h, 40 μM
Note: the reply should be a number with no unit written.

Fill blank: measured efflux ratio at 2 h, 40 μM of the molecule O=C1NC(=O)C(c2ccccc2)(c2ccccc2)N1 is ____.
1.28
